- assay notes: Cytotoxicity against mouse NIH/3T3 cells assessed as cell viability at 1 ug/mL after 24 hrs by MTT assay relative to control
- Type: cell-based, NIH3T3
- condition label: read-out: Activity
property measured: viability at 24 h, 1 ug/mL (%)
Numbers only here, please. The scale is %.

These recorded examples may help you get a feel for the data.
COc1ccc(O)c(-c2csc(N/N=C/c3c[nH]c4ccccc34)n2)c1 | 80.6
C/C(=N\Nc1nc([C@H](C)N)cs1)c1ccc2c(c1)CCC2 | 92.6
COc1ccc(O)c(-c2csc(N/N=C/c3ccc4ccccc4c3)n2)c1 | 69.2

Return viability at 24 h, 1 ug/mL (reported value) for this molecule: `COc1ccc(O)c(-c2csc(N/N=C/c3c(-c4ccccc4)nc4scc(C)n34)n2)c1`
90

* * *

// MIC lookup, one value per entry
- Test system: Nakaseomyces glabratus
- assay notes: Antifungal activity against fluconazole-resistant Candida glabrata isolate 6258 assessed as growth inhibition after 24 to 48 hrs by CLSI microbroth dilution method
- Format: functional

Use these answered entries as a reference point.
COc1ccc(O)c(-c2csc(N/N=C/c3cnc4ccccn34)n2)c1 | > 16 µg/mL
C[C@@H]1[C@H](O)[C@@H](C)/C=C/C=C/C=C/C=C/C=C/C=C/C=C/[C@H](O[C@@H]2O[C@H](C)[C@@H](O)[C@H](N)[C@@H]2O)C[C@@H]2O[C@](O)(C[C@@H](O)C[C@@H](O)[C@H](O)CC[C@@H](O)C[C@@H](O)CC(=O)O[C@H]1C)C[C@H](O)[C@H]2C(=O)O [AMPHOTERICIN B] | 1 µg/mL
CCC(C)n1ncn(-c2ccc(N3CCN(c4ccc(OCC5COC(Cn6cncn6)(c6ccc(Cl)cc6Cl)O5)cc4)CC3)cc2)c1=O (stereo unspecified) [ITRACONAZOLE] | 0.5 µg/mL
C/C(=N\Nc1nc([C@H](C)N)cs1)c1ccc2c(c1)CCC2 | 0.125 µg/mL
C/C(=N\Nc1nc([C@@H]2CCCN2C(=O)OCc2ccccc2)cs1)c1ccc2c(c1)CCC2 | > 16 µg/mL

GET MIC | system: Nakaseomyces glabratus | item: `COc1ccc(O)c(-c2csc(N/N=C/c3c(-c4ccccc4)nc4scc(C)n34)n2)c1`
> 16 µg/mL

* * *

- assay notes: Aqueous solubility in PBS buffer at pH 7.0
- Assay type: physicochemical
property measured: solubility (µM)
Please state the figure in µM; there is no need to write the unit.

C/C(=N\Nc1nc([C@@H](N)Cc2ccccc2)cs1)c1ccc2c(c1)CCC2 | 150

Identify the reported solubility for the following entry. `C/C(=N\Nc1nc([C@@H]2CCCN2)cs1)c1ccc2c(c1)CCC2`
900

State its solubility for this compound: `C/C(=N\Nc1nc([C@H](C)N)cs1)c1ccc2c(c1)CCC2`
700

* * *

- assay notes: Cytotoxicity against mouse NIH/3T3 cells assessed as cell viability at 0.5 ug/mL after 24 hrs by MTT assay relative to control
- Type: cell-based, NIH3T3
- condition label: read-out: Activity
property measured: viability at 24 h, 0.5 ug/mL (%)
State the answer as a number, implicitly in %.

Field: example entries. Status: answers known.
COc1ccc(O)c(-c2csc(N/N=C/c3c[nH]c4ccccc34)n2)c1 | 91.9
COc1ccc(O)c(-c2csc(N/N=C/c3c(-c4ccccc4)nc4scc(C)n34)n2)c1 | 94.6
COc1ccc(O)c(-c2csc(N/N=C/c3ccc4ccccc4c3)n2)c1 | 83.7

Next molecule, viability at 24 h, 0.5 ug/mL to be filled in.
Report viability at 24 h, 0.5 ug/mL for `C/C(=N\Nc1nc([C@H](C)N)cs1)c1ccc2c(c1)CCC2`
93.6

* * *

- System: Nakaseomyces glabratus
- assay notes: Antifungal activity against fluconazole-resistant Candida glabrata isolate 6258 assessed as growth inhibition after 24 to 48 hrs by CLSI microbroth dilution method
- Format: functional
Listed next: entries and their corresponding MIC.

Solved entries:
C/C(=N\Nc1nc([C@H](Cc2c[nH]c3ccccc23)NC(=O)OCc2ccccc2)cs1)c1ccc2c(c1)CCC2 | > 16 µg/mL
COc1ccc(O)c(-c2csc(NN=C3CCCCC3)n2)c1 | 16 µg/mL
COc1ccc(O)c(-c2csc(N/N=C/c3c[nH]c4ccccc34)n2)c1 | > 16 µg/mL
C/C(=N\Nc1nc([C@@H]2CCCN2)cs1)c1ccc2c(c1)CCC2 | > 16 µg/mL
C/C(=N\Nc1nc([C@H](Cc2ccccc2)NC(=O)OCc2ccccc2)cs1)c1ccc2c(c1)CCC2 | > 16 µg/mL
C/C(=N\Nc1nc([C@H](C)NC(=O)OCc2ccccc2)cs1)c1ccc2c(c1)CCC2 | > 16 µg/mL

Please indicate MIC recorded for `CC[C@H](C)C[C@H](C)CCCCCCCCC(=O)N[C@H]1C[C@@H](O)[C@@H](NCCN)NC(=O)[C@@H]2[C@@H](O)CCN2C(=O)[C@H]([C@H](O)CCN)NC(=O)[C@H]([C@H](O)[C@@H](O)c2ccc(O)cc2)NC(=O)[C@@H]2C[C@@H](O)CN2C(=O)[C@H]([C@@H](C)O)NC1=O`
2 µg/mL

* * *

Measured MIC values are reported for all entries that follow.
- System: Candida albicans
- assay notes: Antifungal activity against caspofungin-resistant Candida albicans assessed as growth inhibition after 24 to 48 hrs by CLSI microbroth dilution method

Below, each entry is followed by its recorded MIC result.
COc1ccc(O)c(-c2csc(N/N=C/c3c(-c4ccccc4)nc4scc(C)n34)n2)c1 | > 16 µg/mL
COc1ccc(O)c(-c2csc(N/N=C(/C)C3CCc4ccccc43)n2)c1 (stereo not given) | > 16 µg/mL
COc1ccc(O)c(-c2csc(N/N=C/c3ccc4c(c3)OCO4)n2)c1 | > 16 µg/mL
COc1ccc(O)c(-c2csc(N/N=C/c3cnc4ccccn34)n2)c1 | > 16 µg/mL
COc1ccc(O)c(-c2csc(N/N=C/c3c[nH]c4ccccc34)n2)c1 | 2 µg/mL

Given `C/C(=N\Nc1nc([C@@H](N)Cc2ccccc2)cs1)c1ccc2c(c1)CCC2` , report its MIC on Candida albicans.
> 16 µg/mL

GET MIC where system = Candida albicans and item = `COc1ccc(O)c(-c2csc(N/N=C/c3cnc[nH]3)n2)c1`
> 16 µg/mL

* * *

- Tested on: Nakaseomyces glabratus
- assay notes: Antifungal activity against voriconazole-resistant Candida glabrata clinical isolate 730 assessed as growth inhibition after 24 to 48 hrs by CLSI microbroth dilution method
- Assay type: functional
property measured: MIC (µg/mL)
Numeric answer only, unit µg/mL assumed.

Some solved entries appear below for comparison.
CC[C@H](C)C[C@H](C)CCCCCCCCC(=O)N[C@H]1C[C@@H](O)[C@@H](NCCN)NC(=O)[C@@H]2[C@@H](O)CCN2C(=O)[C@H]([C@H](O)CCN)NC(=O)[C@H]([C@H](O)[C@@H](O)c2ccc(O)cc2)NC(=O)[C@@H]2C[C@@H](O)CN2C(=O)[C@H]([C@@H](C)O)NC1=O | 2
C/C(=N\Nc1nc([C@H](C)N)cs1)c1ccc2c(c1)CCC2 | 8

Please give the documented MIC of `COc1ccc(O)c(-c2csc(N/N=C/c3c[nH]c4ccccc34)n2)c1`
0.5

Specify measured MIC for `COc1ccc(O)c(-c2csc(N/N=C/c3cc[nH]c3)n2)c1` .
16

For the compound `C/C(=N\Nc1nc([C@@H]2CCCN2)cs1)c1ccc2c(c1)CCC2` , give its measured MIC value.
16

# return recorded MIC for entry `C[C@@H]1[C@H](O)[C@@H](C)/C=C/C=C/C=C/C=C/C=C/C=C/C=C/[C@H](O[C@@H]2O[C@H](C)[C@@H](O)[C@H](N)[C@@H]2O)C[C@@H]2O[C@](O)(C[C@@H](O)C[C@@H](O)[C@H](O)CC[C@@H](O)C[C@@H](O)CC(=O)O[C@H]1C)C[C@H](O)[C@H]2C(=O)O`
1

* * *

compounds and their reported MIC
- System: Nakaseomyces glabratus
- assay notes: Antifungal activity against voriconazole-resistant Candida glabrata clinical isolate 730 assessed as growth inhibition after 24 to 48 hrs by CLSI microbroth dilution method
- Assay type: functional
Give just the numeric value; µg/mL need not be written.

Here's what some known entries look like.
OC(Cn1cncn1)(Cn1cncn1)c1ccc(F)cc1F | 64
C[C@@H](c1ncncc1F)[C@](O)(Cn1cncn1)c1ccc(F)cc1F | 16
COc1ccc(O)c(-c2csc(N/N=C(/C)C3CCc4ccccc43)n2)c1 (stereo not drawn) | 16

We now examine a further compound.
For the compound `COc1ccc(O)c(-c2csc(N/N=C/c3c(-c4ccccc4)nc4scc(C)n34)n2)c1` , report MIC.
2

* * *

- Tested on: Candida albicans
- assay notes: Antifungal activity against caspofungin-resistant Candida albicans assessed as growth inhibition after 24 to 48 hrs by CLSI microbroth dilution method
The compounds listed here are annotated with their MIC.

COc1ccc(O)c(-c2csc(N/N=C/c3ccco3)n2)c1 | > 16 µg/mL
C[C@@H](c1ncncc1F)[C@](O)(Cn1cncn1)c1ccc(F)cc1F | 0.25 µg/mL
COc1ccc(O)c(-c2csc(N/N=C/c3cc[nH]c3)n2)c1 | 16 µg/mL
CC[C@H](C)C[C@H](C)CCCCCCCCC(=O)N[C@H]1C[C@@H](O)[C@@H](NCCN)NC(=O)[C@@H]2[C@@H](O)CCN2C(=O)[C@H]([C@H](O)CCN)NC(=O)[C@H]([C@H](O)[C@@H](O)c2ccc(O)cc2)NC(=O)[C@@H]2C[C@@H](O)CN2C(=O)[C@H]([C@@H](C)O)NC1=O | 0.5 µg/mL
C/C(=N\Nc1nc([C@H](Cc2c[nH]c3ccccc23)NC(=O)OCc2ccccc2)cs1)c1ccc2c(c1)CCC2 | > 16 µg/mL
COc1ccc(O)c(-c2csc(N/N=C/c3cc4ccccc4o3)n2)c1 | > 16 µg/mL
C/C(=N\Nc1nc([C@@H]2CCCN2C(=O)OCc2ccccc2)cs1)c1ccc2c(c1)CCC2 | > 16 µg/mL
C/C(=N\Nc1nc([C@H](C)NC(=O)OCc2ccccc2)cs1)c1ccc2c(c1)CCC2 | > 16 µg/mL
C[C@@H]1[C@H](O)[C@@H](C)/C=C/C=C/C=C/C=C/C=C/C=C/C=C/[C@H](O[C@@H]2O[C@H](C)[C@@H](O)[C@H](N)[C@@H]2O)C[C@@H]2O[C@](O)(C[C@@H](O)C[C@@H](O)[C@H](O)CC[C@@H](O)C[C@@H](O)CC(=O)O[C@H]1C)C[C@H](O)[C@H]2C(=O)O | 0.5 µg/mL
COc1ccc(O)c(-c2csc(NN=C3CCCCC3)n2)c1 | > 16 µg/mL

Please supply the value of reported MIC for the item `C/C(=N\Nc1nc([C@H](Cc2ccccc2)NC(=O)OCc2ccccc2)cs1)c1ccc2c(c1)CCC2`
> 16 µg/mL

Please report the measured MIC for `C/C(=N\Nc1nc([C@H](C)N)cs1)c1ccc2c(c1)CCC2`
16 µg/mL

Query MIC for CCC(C)n1ncn(-c2ccc(N3CCN(c4ccc(OCC5COC(Cn6cncn6)(c6ccc(Cl)cc6Cl)O5)cc4)CC3)cc2)c1=O (stereo not drawn)
0.03 µg/mL
